- runParameters: in n-propanol, 273.15 K
resultType: solubility (mole fraction)

# get_value(readout='solubility (mole fraction)', item= CC(C)C(N)=O ) 0.0352

----------
- runParameters: in 2-butanone, 308.55 K
resultType: solubility (mole fraction)
Number, no unit, nothing else.

# get_value(readout='solubility (mole fraction)', item= CC(C)C(N)=O ) 0.0773

----------
- runParameters: in cyclohexanone, 313.65 K
resultType: solubility (mole fraction)
Number, no unit, nothing else.

# get_value(readout='solubility (mole fraction)', item= CC(C)C(N)=O ) 0.101

----------
- runParameters: in isobutanol, 308.55 K
resultType: solubility (mole fraction)
Number, no unit, nothing else.

# get_value(readout='solubility (mole fraction)', item= CC(C)C(N)=O ) 0.146
